tested on: Lindernia pyxidaria; experiment: Test Example 12: herbicidal effect test by treatment during growing period in paddy field; assay type: in vivo; settings: 120 g/10a; treatment seven days after sowing in flooded paddy pot; assessed 14 days after treatment
ENDPOINT: Weed suppression rate (%) Lindemia pyxidaria
Answer with a number only, understood to be in %.

Below, 3 compounds whose answers are already recorded.
>>> value_observed("CC(C)N(C(=O)n1cnn(S(=O)(=O)C(C)C)c1=O)c1ccc(Cl)cc1Br")
70
>>> value_observed("CC(C)N(C(=O)n1cnn(S(C)(=O)=O)c1=O)c1ccccc1F")
90
>>> value_observed("CC(C)N(C(=O)n1cnn(S(=O)(=O)c2cccc(F)c2)c1=O)c1ccccc1")
90

# ---- query compound ----
Q) May I ask what Weed suppression rate (%) Lindemia pyxidaria has been recorded for Cc1ccc(S(=O)(=O)n2ncn(C(=O)N(c3c(F)cc(F)cc3F)C(C)C)c2=O)cc1 ?
A) 80

----------
test system: Echinochloa crus-galli; experiment: Test Example 11: herbicidal effect test by soil treatment in paddy field; assay type: in vivo; conditions: 120 g/10a active ingredient, 14 days after treatment
The reader will find reported Weed suppression rate (%) Echinochloa crus-galli values listed item by item below.
The response must be a number in % with no trailing unit.

Here's what some known entries look like.
>>> value_observed("CC(C)N(C(=O)n1cnn(S(=O)(=O)C(F)(F)F)c1=O)c1ccc(F)cc1F")
100
>>> value_observed("Cc1cc(N(C(=O)n2cnn(S(=O)(=O)C(C)C)c2=O)C(C)C)no1")
90
>>> value_observed("Cc1ccc(S(=O)(=O)n2ncn(C(=O)N(c3ccc(Cl)cc3Br)C(C)C)c2=O)cc1")
90

Q) // query Weed suppression rate (%) Echinochloa crus-galli value for entry Cc1cc(C)c(S(=O)(=O)n2ncn(C(=O)N(c3c(F)cc(F)cc3F)C(C)C)c2=O)c(C)c1
A) 100

----------
Quick list: Weed suppression rate (%) Echinochloa crus-galli per entry.
tested on: Echinochloa crus-galli; test: Test Example 11: herbicidal effect test by soil treatment in paddy field; type: in vivo; settings: 120 g/10a active ingredient, 14 days after treatment
Your answer is read as %, so omit the unit and give the number.

Please review the following examples before continuing.
>>> value_observed("CC(C)N(C(=O)n1cnn(S(=O)(=O)c2ccccc2Cl)c1=O)c1ccccc1F")
90
>>> value_observed("CC(C)N(C(=O)n1cnn(S(=O)(=O)c2cccc(F)c2)c1=O)c1c(F)cc(F)cc1F")
100
>>> value_observed("Cc1cc(F)ccc1N(C(=O)n1cnn(S(=O)(=O)c2ccc(F)cc2)c1=O)C(C)C")
100
>>> value_observed("Cc1ccc(S(=O)(=O)n2ncn(C(=O)N(C)c3ccc(F)cc3F)c2=O)cc1")
100
>>> value_observed("CC(C)N(C(=O)n1cnn(S(=O)(=O)c2cccc(F)c2)c1=O)c1c(F)c(F)cc(F)c1F")
80
>>> value_observed("CC(C)N(C(=O)n1cnn(S(=O)(=O)c2ccc(Br)cc2)c1=O)c1ccc(F)cc1F")
90
>>> value_observed("CC(C)N(C(=O)n1cnn(S(=O)(=O)C2CC2)c1=O)c1c(F)cccc1F")
100
>>> value_observed("CC(C)N(C(=O)n1cnn(S(=O)(=O)C2CCC2)c1=O)c1ccc(F)cc1F")
100

Q) Need Weed suppression rate (%) Echinochloa crus-galli, item CN(C(=O)n1cnn(S(C)(=O)=O)c1=O)c1ccc(F)cc1F
A) 90
